These entries and their values trace back to patent US8193191B2.

TARGET: rat GPR14 (U-II receptor) (Rattus norvegicus, UniProt P49684)
Construct: expressed in transfected cells
Sequence (P49684 1-386): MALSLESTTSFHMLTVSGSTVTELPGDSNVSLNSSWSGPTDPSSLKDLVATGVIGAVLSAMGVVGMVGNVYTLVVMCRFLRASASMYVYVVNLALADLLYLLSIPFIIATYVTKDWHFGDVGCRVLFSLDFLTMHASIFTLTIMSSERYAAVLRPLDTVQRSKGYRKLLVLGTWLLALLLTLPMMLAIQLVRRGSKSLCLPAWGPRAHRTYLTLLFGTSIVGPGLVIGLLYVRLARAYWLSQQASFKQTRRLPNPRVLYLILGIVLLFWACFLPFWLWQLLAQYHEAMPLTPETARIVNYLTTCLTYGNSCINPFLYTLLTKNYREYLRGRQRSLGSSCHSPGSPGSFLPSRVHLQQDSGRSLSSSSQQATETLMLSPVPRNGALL
TEST SUMMARY: Rat UII Calcium Mobilization FLIPR Assay
Format: cell-based
EXPERIMENTAL CONTEXT: CHO, 5 min, 50 μM compound; agonist-induced Ca2+ mobilization (FLIPR), CHO cells with rat UII receptor; read-out: % I @ 50
# inhibition at 50 µM listing for each entry below

Example entries and their recorded answers appear below.
In [3]: df
Out[3]:
                                   compound         readout_name  measured
0  COc1cc(CN2C(=O)c3cccc(N4CC5CCC(C4)N5Cc4ccccc4)c3C2=O)cc(OC)c1OC  inhibition at 50 µM       94%
1  COc1ccc(CN2C(=O)c3cccc(C4CCN(Cc5ccccc5)CC4)c3C2=O)cc1OC  inhibition at 50 µM       99%
2  COc1ccc(CN2C(=O)c3cccc(OCCN(C)Cc4ccccc4)c3C2=O)cc1OC  inhibition at 50 µM       78%
3  COc1ccc(CN2C(=O)c3cccc(N4CCN(Cc5c(F)cccc5F)CC4)c3C2=O)cc1OC  inhibition at 50 µM       97%

Now look at this one.
// field: inhibition at 50 µM; key: COc1ccc(CN2C(=O)c3cccc(N4CC5CCC(C4)N5C(C)c4ccccc4)c3C2=O)cc1OC (centres unmarked) ; value = 93%

###

pIC50 values by entry
TARGET: Human UII receptor, 6D9 human rhabdomyosarcoma cells (Homo sapiens, UniProt Q9UKP6)
Construct: 6D9: isolated by dilution subcloning of RMS13 cells, ATCC® Number: CRL-2061
Sequence (Q9UKP6 whole entry): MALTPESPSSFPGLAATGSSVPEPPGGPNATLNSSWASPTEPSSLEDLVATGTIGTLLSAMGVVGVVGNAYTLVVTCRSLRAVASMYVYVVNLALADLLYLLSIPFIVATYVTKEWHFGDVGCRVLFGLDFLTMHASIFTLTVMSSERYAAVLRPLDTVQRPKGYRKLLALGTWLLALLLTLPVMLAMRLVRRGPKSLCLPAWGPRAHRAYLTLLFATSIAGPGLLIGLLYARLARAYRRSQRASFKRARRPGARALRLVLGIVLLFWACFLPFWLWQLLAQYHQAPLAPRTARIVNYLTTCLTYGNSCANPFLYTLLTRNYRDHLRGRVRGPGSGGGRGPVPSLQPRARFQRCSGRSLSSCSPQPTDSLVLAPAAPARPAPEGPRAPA
TEST SUMMARY: Human UII Calcium Mobilization Assay
EXPERIMENTAL CONTEXT: average value, FLIPR TETRA, read-out: Human UII Ca^+ Mobilization Average IC50
Here pIC50 is given on a logarithmic scale as minus log10 of the concentration in mol/L.

Record excerpt, results attached:
In [3]: df
Out[3]:
                                   compound  measured
0  COc1ccc([C@@H](CCCNC(=O)[C@@H]2CCCN2C)N2C(=O)c3cccc(N4CCN([C@H](C)c5ccccc5)CC4)c3C2=O)cc1OC      5.82
1  COc1ccc([C@@H](CCCNS(=O)(=O)c2cccs2)N2C(=O)c3cccc(N4CCN(Cc5cccnc5)CC4)c3C2=O)cc1OC      6.00
2  COc1ccc([C@@H](CCCNC(=O)c2ccc(S(N)(=O)=O)n2C)N2C(=O)c3cccc(N4CCN([C@H](C)c5ccccc5)CC4)c3C2=O)cc1OC      5.96
3  COc1ccc([C@@H](CCCNc2ccccn2)N2C(=O)c3cccc(N4CCN([C@H](C)c5ccccc5)CC4)c3C2=O)cc1OC      5.96
4  COc1ccc([C@@H](CCCNC(=O)c2cn(C)cn2)N2C(=O)c3cccc(N4CCN([C@H](C)c5ccccc5)CC4)c3C2=O)cc1OC      5.92
5  COc1ccc(CN2C(=O)c3cccc(N4CCN(C5C6CC7CC(C6)CC5C7)CC4)c3C2=O)cc1OC (stereo not drawn)      5.82
6  CCN1CCN(c2cccc3c2C(=O)N([C@H](CCCNS(=O)(=O)c2cn(C)c(C)n2)c2ccc(OC)c(OC)c2)C3=O)CC1      6.09
7  COc1ccc(C(CCCNS(=O)(=O)c2c(C)noc2C)N2C(=O)c3cccc(N4CCN([C@H](C)c5ccccc5)CC4)c3C2=O)cc1OC (stereo partly drawn)      5.85

Turning now to a further compound:
Note to self: pIC50 recorded for COc1ccc([C@@H](CCCNC(=O)C2CCOC2)N2C(=O)c3cccc(N4CCN([C@H](C)c5ccccc5)CC4)c3C2=O)cc1OC (stereo partly drawn) was 6.10
